Catalogue of molecules with associated half-life
Assay explanation: Pharmacokinetic evaluation experiment in mice (IV and PO)
Type: in vivo
Particulars: mouse; male ICR mice, IV 5 mg/kg, plasma
Protocol: 120 healthy adult male ICR mice were selected and divided into 20 groups according to the principle of similar body weight, with 6 mice in each group of IV (10 groups) and 6 mice in each group of PO (10 groups). […] The content of the test compound in the plasma of mice after intravenous and intragastric administration was determined by LC/MS/MS method. The linear range of the method was 1.00 to 1000 ng/mL: plasma samples were analyzed after protein precipitation.
Measure name: half-life

Molecule	Val
CNC(=O)c1cc2c(c(F)c1-c1c(Cl)c(F)cc3c1C[C@](c1ccccc1)([C@@H]1CCCN1)O3)CCC2 [Compound 31a]	3.52 h
CNC(=O)c1cc2c(c(F)c1-c1c(Cl)c(F)cc3c1C[C@](c1ccccc1)([C@@H]1CC4(CC4)CN1)O3)OC1CC21 (stereo partly drawn) [Compound 18a]	1.59 h
CNC(=O)c1cc2c(c(F)c1-c1c(Cl)c(F)cc3c1C[C@@](CN[C@H]1CC[C@H](O)CC1)(c1ccccc1)O3)C1CC1O2 (stereo partly drawn) [Compound 13a]	2.23 h
CNC(=O)c1cc2c(c(F)c1-c1c(Cl)c(F)cc3c1C[C@](c1ccccc1)([C@@H]1CCCN1)O3)C1CC1O2 (stereo partly drawn)	3.82 h
CNC(=O)c1cnc(OCCO)c(F)c1-c1c(Cl)c(F)cc2c1C[C@](c1ccccc1)([C@@H]1CC3(CC3)CN1)O2 [Compound 10a]	1.11 h
CNC(=O)c1cc2c(c(F)c1-c1c(Cl)c(F)cc3c1C[C@](c1ccccc1)([C@@H]1CCCN1)O3)OC1CC21 (stereo partly drawn) [Compound 17a]	1.79 h
NC(=O)c1cc2c(c(F)c1-c1c(Cl)c(F)cc3c1C[C@](c1ccccc1)([C@@H]1CCCN1)O3)CCC2O (stereo partly drawn) [Compound 53a]	4.18 h
CNC(=O)c1cc2c(c(F)c1-c1c(Cl)c(F)cc3c1C[C@](c1ccccc1)([C@@H]1CCCN1)O3)CCC2O (stereo partly drawn) [Compound 41a]	2.19 h
CNC(=O)c1cc2c(c(F)c1-c1c(Cl)c(F)cc3c1C[C@](c1ccccc1)([C@@H]1CC4(CC4)CN1)O3)C1CC1O2 (stereo partly drawn) [Compound 16a]	2.28 h

----------
Assay explanation: Pharmacokinetic evaluation experiment in mice (IV and PO)
Type: in vivo
Particulars: mouse; male ICR mice, IV 5 mg/kg, plasma; read-out: AUC
Measure name: AUC

Compound	Val
CNC(=O)c1cc2c(c(F)c1-c1c(Cl)c(F)cc3c1C[C@](c1ccccc1)([C@@H]1CCCN1)O3)OC1CC21 (some centres unmarked) [Compound 17a]	1100 ng·h/mL
CNC(=O)c1cnc(OCCO)c(F)c1-c1c(Cl)c(F)cc2c1C[C@](c1ccccc1)([C@@H]1CC3(CC3)CN1)O2 [Compound 10a]	1650 ng·h/mL
CNC(=O)c1cc2c(c(F)c1-c1c(Cl)c(F)cc3c1C[C@](c1ccccc1)([C@@H]1CC4(CC4)CN1)O3)C1CC1O2 (some centres unmarked) [Compound 16a]	1480 ng·h/mL
NC(=O)c1cc2c(c(F)c1-c1c(Cl)c(F)cc3c1C[C@](c1ccccc1)([C@@H]1CCCN1)O3)CCC2O (some centres unmarked) [Compound 53a]	1880 ng·h/mL
CNC(=O)c1cc2c(c(F)c1-c1c(Cl)c(F)cc3c1C[C@](c1ccccc1)([C@@H]1CC4(CC4)CN1)O3)OC1CC21 (some centres unmarked) [Compound 18a]	804 ng·h/mL

----------
Assay explanation: Pharmacokinetic evaluation experiment in mice (IV and PO)
Format: in vivo
Particulars: mouse; male ICR mice, PO 30 mg/kg, plasma; read-out: Tmax
Experimental: 120 healthy adult male ICR mice were selected and divided into 20 groups according to the principle of similar body weight, with 6 mice in each group of IV (10 groups) and 6 mice in each group of PO (10 groups). […] The content of the test compound in the plasma of mice after intravenous and intragastric administration was determined by LC/MS/MS method. The linear range of the method was 1.00 to 1000 ng/mL: plasma samples were analyzed after protein precipitation.

Molecule	Tmax
CNC(=O)c1cc2c(c(F)c1-c1c(Cl)c(F)cc3c1C[C@](c1ccccc1)([C@@H]1CCCN1)O3)OC1CC21 (stereo partly drawn) [Compound 17a]	1.33 h
CNC(=O)c1cc2c(c(F)c1-c1c(Cl)c(F)cc3c1C[C@](c1ccccc1)([C@@H]1CCCN1)O3)CCC2 [Compound 31a]	1 h
CNC(=O)c1cc2c(c(F)c1-c1c(Cl)c(F)cc3c1C[C@@](CN[C@H]1CC[C@H](O)CC1)(c1ccccc1)O3)C1CC1O2 (stereo partly drawn) [Compound 13a]	2 h

----------
Test system: NCI-H2052 cells
Assay explanation: Tumor cell proliferation inhibition experiment (Cell Titer Glo), NCI-H2052
Type: cell-based
Particulars: Homo sapiens, 72 h, NCI-H2052 lung cancer cells, three days incubation
pIC50: −log10 of the molar value.
Catalogue of compounds with associated pIC50
Measure name: pIC50

Compound	Measure name	Value qualifier	Val
CNC(=O)c1cnc(OCCO)c(F)c1-c1c(Cl)c(F)cc2c1C[C@](c1ccccc1)([C@@H]1CCC(=O)N1)O2 [Compound 19a]	pIC50	<	5.00
CNC(=O)c1cc2c(c(F)c1-c1c(Cl)c(F)cc3c1C[C@](c1ccccc1)([C@@H]1CCCN1)O3)CC(=O)C2 [Compound 65a]	pIC50	<	5.00
C[C@H]1c2c(cc(F)c(Cl)c2-c2c(C(N)=O)cc3c(c2F)OC2CC32)O[C@]1(CN[C@H]1CC[C@](C)(O)CC1)c1ccccc1 (stereo partly drawn) [Compound 28a]	pIC50	=	7.30
CNC(=O)c1cc2c(c(F)c1-c1c(Cl)c(F)cc3c1C[C@](c1ccccc1)([C@@H]1CCC(=O)N1)O3)C1CC1O2 (stereo partly drawn) [Compound 20a]	pIC50	<	5.00
CNC(=O)c1cc2c(c(F)c1-c1c(Cl)c(F)cc3c1C[C@](c1ccccc1)([C@@H]1CCCN1)O3)C1CC1O2 (stereo partly drawn)	pIC50	=	6.03
CNC(=O)c1cc2c(c(F)c1-c1c(Cl)c(F)cc3c1C[C@](c1ccccc1)([C@@H]1CCCN1)O3)CC(O)C2 (stereo partly drawn) [Compound 49a]	pIC50	=	6.62

----------
Test system: NCI-H2052 cells
Assay explanation: Tumor cell proliferation inhibition experiment (Cell Titer Glo), NCI-H2052
Type: cell-based
Particulars: Homo sapiens, 72 h, NCI-H2052 lung cancer cells, three days incubation
Note to self: IC50 under 600 nM means True, ties and anything higher get False.

Compound	Label value
CNC(=O)c1cc2c(c(F)c1-c1c(Cl)c(F)cc3c1C[C@@](CN[C@H]1CC[C@](C)(O)CC1)(c1ccccc1)O3)CCC2O (stereo partly drawn) [Compound 42a]	False
CNC(=O)c1cc2c(c(F)c1-c1c(Cl)c(F)cc3c1C[C@](c1ccccc1)([C@@H]1CCCN1)O3)CCC2S(C)(=O)=O (stereo partly drawn) [Compound 46a]	False
CNC(=O)c1cc2c(c(F)c1-c1c(Cl)c(F)cc3c1C[C@](c1ccccc1)([C@@H]1CCCN1)O3)CCC2(F)F [Compound 36a]	False
CNC(=O)c1cc2c(c(F)c1-c1c(Cl)c(F)cc3c1[C@H](C)[C@@](CN[C@H]1CC[C@](C)(O)CC1)(c1ccccc1)O3)C1CC1O2 (stereo partly drawn) [Compound 25a]	True

----------
Catalogue of molecules with associated IC50
System: NCI-H2052 cells
Assay explanation: Tumor cell proliferation inhibition experiment (Cell Titer Glo), NCI-H2052
Type: cell-based
Particulars: Homo sapiens, 72 h, NCI-H2052 lung cancer cells, three days incubation

Molecule	Assayed system	IC50
CNC(=O)c1cc2c(c(F)c1-c1c(Cl)c(F)cc3c1C[C@](c1ccccc1)([C@@H]1CCCN1)O3)CCC2C#N (stereo partly drawn) [Compound 38a]	NCI-H2052 cells	750 nM
NC(=O)c1cc2c(c(F)c1-c1c(Cl)c(F)cc3c1C[C@](c1ccccc1)([C@@H]1CCCN1)O3)CCC2 [Compound 52a]	NCI-H2052 cells	200 nM
CNC(=O)c1cnc(OCCO)c(F)c1-c1c(Cl)c(F)cc2c1C[C@](c1ccccc1)([C@@H]1CC3(CC3)CN1)O2 [Compound 10a]	NCI-H2052 cells	328 nM
CNC(=O)c1cnc(OCCO)c(F)c1-c1c(Cl)c(F)cc2c1C[C@](c1ccccc1)(c1ccn[nH]1)O2 [Compound 11a]	NCI-H2052 cells	> 10000 nM
C[C@H]1c2c(cc(F)c(Cl)c2-c2c(C(N)=O)cc3c(c2F)C2CC2O3)O[C@]1(CN[C@H]1CC[C@](C)(O)CC1)c1ccccc1 (stereo partly drawn) [Compound 27a]	NCI-H2052 cells	210 nM
CNC(=O)c1cc2c(c(F)c1-c1c(Cl)c(F)cc3c1C[C@](c1ccccc1)([C@@H]1CC4(CC4)CN1)O3)N1CCCC1CO2 (stereo partly drawn) [Compound 15a]	NCI-H2052 cells	2730 nM
